Recorded values, source patent US20190064177A1.

tested-on: Diaphorase
measurement-description: peptide array, 1 uM labeled diaphorase, no FAD
List of fluorescence values.
assay-metric: fluorescence

binder=KEAPGPRFGGSG recorded_measurement=1070
binder=YRFAQYKGQKDGSG recorded_measurement=4470
binder=NVSDLSQFYLSGSG recorded_measurement=2140
binder=DLDKAFGGSG recorded_measurement=607
binder=FQFGKVVSDGSG recorded_measurement=1570
binder=VKDGANKHYWRVSGSG recorded_measurement=2220
binder=YSVDYWYQVDGSG recorded_measurement=1800
binder=LDRLGEYQFSGSG recorded_measurement=709
